From: patent US11286268B1

Target: recombinant eIF4E (Homo sapiens (Human))
Experiment: Fluorescence polarization competition assay for eIF4E binding potency
Conditions: inhibition of eIF4E/EDA-m7GDP-ATTO-550 binding by 50%; Table 4B calculated values; read-out: IC50
Protocol: Compounds were screened for eIF4E binding potency using a fluorescence polarization competition assay. All binding reactions were performed in fluorescence polarization buffer (FPB) containing 20 mM Tris pH 7.5, 100 mM NaCl, 1 mM DTT, and 0.02% Tween-20. Final binding reactions contained 75 nM recombinant eIF4E (Beryllium, custom order), 20 nM EDA-m^7GDP-ATTO-550 (Jena Bioscience, NU-827-550) and varying concentrations of the inhibitory compound of interest. […]
endpoint-name: IC50 (nM)

Known results for compounds:
INSERT INTO assay_data (item_smiles, numeric_readout) VALUES
  ('Cc1cc(-c2cc(Cl)ccc2OCCn2c(C)nc3cc(OC(F)F)c(F)c(C#N)c3c2=O)c2scc(C(=O)O)c2n1', 29.6),
  ('Cc1nc2cc(F)c(OC(F)F)c(C#N)c2c(=O)n1CCOc1ccc(Cl)cc1-c1ccnc2c(C(=O)O)csc12', 7.81),
  ('Cc1cc(-c2cc(Cl)ccc2OCCn2c(C)nc3c(OC(F)F)ncc(C#N)c3c2=O)c2scc(C(=O)O)c2n1', 70.7),
  ('Cc1cc(-c2cc(Cl)ccc2OCCn2c(C)nc3cc(C(F)(F)F)c(CN4CC5CCC(C4)N5C)c(C#N)c3c2=O)c2scc(C(=O)O)c2n1', 39.2);

a. Cc1nc2cnc(N(C)C3CCN(CC4(F)CC4)CC3)c(C#N)c2c(=O)n1CC#Cc1ccc(Cl)cc1-c1ccnc2c(C(=O)O)csc12
b. Cc1nc2cc(Cl)c(S(=O)(=O)N(C)C)c(C#N)c2c(=O)n1CCOc1ccc(Cl)cc1-c1ccnc2c(C(=O)O)csc12
For the two items a and b , which reports the higher IC50 value? Your choice should be expressed through its label. b

----------
molecular target: recombinant eIF4E (Homo sapiens (Human), UniProt P06730); experiment: Fluorescence polarization competition assay for eIF4E binding potency; settings: fluorescence polarization competition, 75 nM recombinant eIF4E, 20 nM EDA-m7GDP-ATTO-550; IC50 class; read-out: elF4E FP
Sequence (P06730 whole entry): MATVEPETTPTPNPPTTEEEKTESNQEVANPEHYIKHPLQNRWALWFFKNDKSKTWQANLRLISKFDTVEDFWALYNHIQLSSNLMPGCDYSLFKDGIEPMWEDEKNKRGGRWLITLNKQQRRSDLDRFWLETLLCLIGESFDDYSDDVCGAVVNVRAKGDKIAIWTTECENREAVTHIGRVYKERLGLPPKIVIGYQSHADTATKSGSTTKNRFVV
Catalogue of IC50 readings, one per entry.

What value of IC50 has been recorded for this entry: Cc1nc2cc(Cl)c(S(=O)(=O)N(C)C)c(C#N)c2c(=O)n1CCOc1ccc(Cl)cc1-c1ccnc2c(C(=O)O)csc12 [compound 247] 50 to 1000 nM

What value of IC50 has been recorded for this entry: Cc1cc(-c2cc(Cl)ccc2OCCn2c(C)nc3cc(Cl)c(N4CCC(O)C4)c(C#N)c3c2=O)c2scc(C(=O)O)c2n1 (stereo not drawn) [compound 1054] < 50 nM

What value of IC50 has been recorded for this entry: Cc1sc2c(-c3cc(Cl)ccc3OCCn3c(C)nc4cc(C(F)(F)F)c(CN(C)C)c(C#N)c4c3=O)ccnc2c1C(=O)O [compound 556] < 50 nM

What value of IC50 has been recorded for this entry: Cc1ccc(-c2c(C(F)(F)F)cc3nc(C)n(CCOc4ccc(Cl)cc4-c4cc(C)nc5c(C(=O)O)csc45)c(=O)c3c2C#N)nn1 [compound 967] < 50 nM

What value of IC50 has been recorded for this entry: CNC(=O)c1cc(C#N)c2c(=O)n(CCOc3ccc(Cl)cc3-c3ccnc4c(C(=O)O)csc34)c(C)nc2c1 [compound 412] 50 to 1000 nM

What value of IC50 has been recorded for this entry: Cc1nc2cc(F)c(C#N)c(C#N)c2c(=O)n1CCOc1ccc(Cl)cc1-c1ccnc2c(C(=O)O)csc12 [compound 276] < 50 nM
